Target: human IDO1 (Homo sapiens, UniProt P14902)
Sequence (P14902 whole entry): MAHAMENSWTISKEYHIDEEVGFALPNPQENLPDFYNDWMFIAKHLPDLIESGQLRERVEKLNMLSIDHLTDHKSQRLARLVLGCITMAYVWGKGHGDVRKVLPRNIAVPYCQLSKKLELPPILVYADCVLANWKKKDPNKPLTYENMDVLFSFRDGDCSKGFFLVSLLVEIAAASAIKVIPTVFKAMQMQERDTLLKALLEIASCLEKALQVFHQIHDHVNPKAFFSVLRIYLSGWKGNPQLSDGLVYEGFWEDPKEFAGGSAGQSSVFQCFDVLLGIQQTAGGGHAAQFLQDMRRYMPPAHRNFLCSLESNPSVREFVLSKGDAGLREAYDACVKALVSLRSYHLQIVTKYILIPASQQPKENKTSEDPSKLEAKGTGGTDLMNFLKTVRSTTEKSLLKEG
Test: IDO inhibition assay in HEK293 cells stably expressing human IDO1 (kynurenine production, Ehrlich reagent, absorbance 490 nm)
Conditions: 20 hours incubation with compound, 500 nM reference standard = 100% inhibition, read-out: IDO1 HEK Human IC50
Where a name gives a salt, the structure may show the parent alone.
test-readout: IC50 (nM)
// units = nM; emit number, no label

* CCCN(Cc1ccccc1)c1cc(Nc2ccc3nc(C)sc3c2)cc(-c2ccccc2-c2nnn[nH]2)n1 | 4.2
* Cc1cnc(Nc2cc(-c3ccccc3-c3nnn[nH]3)nc(N(Cc3ccccc3)CC(C)C)c2)cn1 [Example 49, TFA] | 31.6
* CCCN(Cc1ccccc1)c1cc(NC(=O)Cc2cc(C)no2)cc(-c2ccccc2-c2nnn[nH]2)n1 | 797
* Cc1cnc(Nc2cc(-c3ccccc3-c3nnn[nH]3)nc(N(Cc3ccc(F)cc3)CC(C)C)c2)nc1 [Example 40, TFA] | 33.1

Entry `Cc1nc2ccc(Nc3cc(-c4ccccc4-c4nnn[nH]4)nc(N(Cc4ccccc4)CC(C)C)c3)cc2s1` ; IC50 = 2.1

Value of measured IC50 for the entry `CC(C)CN(CC(C)C)c1cc(NC(=O)Nc2ccccc2F)cc(-c2ccccc2-c2nnn[nH]2)n1` : 972

// IC50 lookup, molecule = `CCCN(Cc1ccccc1)c1cc(NC(=O)NC2CCCCC2)cc(-c2ccccc2-c2nnn[nH]2)n1` , result: 5210

The molecule `COc1ccccc1N1CCN(c2cc(NC(=O)Cc3ccc(C)cc3)cc(-c3ccccc3-c3nnn[nH]3)n2)CC1` showed IC50 equal to 1250

The reported IC50 of the molecule `CCCN(Cc1ccccc1)c1cc(NC(=O)Cc2ccc(C)cc2)cc(-c2ccccc2C(=O)NS(C)(=O)=O)n1` was 328

# IC50 of `CCCN(Cc1ccccc1)c1nc(NC(=O)Cc2ccc(C)cc2)cc(-c2ccccc2-c2nnn[nH]2)n1` = 16.2

// recorded IC50 for `CC(C)CN(Cc1ccccc1)c1cc(Nc2ccc(F)c(F)c2)cc(-c2ccccc2-c2nnn[nH]2)n1` : 4.3

====

# pIC50 per entry
Molecular target: human IDO1 (Homo sapiens, UniProt P14902)
Construct: expressed in transfected cells
Assay: IDO inhibition assay in HEK293 cells stably expressing human IDO1 (kynurenine production, Ehrlich reagent, absorbance 490 nm)
Format: cell-based
Details: 20 hours incubation with compound, 500 nM reference standard = 100% inhibition, read-out: IDO1 HEK Human IC50
pIC50 is defined as minus the log10 of a concentration measured in mol/L.

• CC(C)CN(Cc1ccccc1)c1cc(Nc2nnc(-c3ccccc3)s2)cc(-c2ccccc2-c2nnn[nH]2)n1 [Example 52] = 6.72

Noted for CCCN(Cc1ccccc1)c1cc(NC(=O)Nc2ccc(C)cc2)cc(-c2ccccc2C(=O)NS(C)(=O)=O)n1 [Example 24] : its pIC50 reads 6.59

====

Target: human IDO1 (Homo sapiens, UniProt P14902)
Assay: IDO inhibition assay in HEK293 cells stably expressing human IDO1 (kynurenine production, Ehrlich reagent, absorbance 490 nm)
Conditions: 20 hours incubation with compound, 500 nM reference standard = 100% inhibition, read-out: IDO1 HEK Human IC50
Where a name gives a salt, the structure may show the parent alone.
test-readout: IC50 (nM)
API: value field is a number in nM; no unit string.

Reference set (4 entries):
* CCCN(Cc1ccccc1)c1cc(NC(=O)Cc2ccccc2)cc(-c2ccccc2-c2nn[nH]n2)n1 | 364
* CC(C)CN(c1cc(NC(=O)Nc2ccc(F)cc2F)cc(-c2ccccc2-c2nnn[nH]2)n1)C1CCCCC1 | 5990
* CCCN(Cc1ccccc1)c1cc(NC(=O)Cc2ccc(C)cc2)cc(-c2cc(C)ccc2-c2nnn[nH]2)n1 | 102
* Cc1ccc(NC(=O)Nc2cc(-c3ccccc3-c3nnn[nH]3)nc(N(Cc3ccc(F)cc3)CC(C)C)c2)cc1 [Example 78, TFA] | 8.2

Record summary for `CCCN(Cc1ccccc1)c1cc(NC(=O)Cc2cncc(Br)c2)cc(-c2ccccc2-c2nn[nH]n2)n1` : reported IC50 = 239

Per the records, this molecule ( `CC(C)CN(Cc1ccccc1)c1cc(Nc2ccncc2F)cc(-c2ccccc2-c2nnn[nH]2)n1` ) has IC50 equal to 23.4

Note to self: IC50 recorded for `CCCN(Cc1ccccc1)c1cc(NC(=O)Nc2ccc(C)cc2)cc(-c2ccccc2-c2nnn[nH]2)n1` was 9.9

====

Target: human IDO1 (Homo sapiens)
Assay: IDO inhibition assay in HEK293 cells stably expressing human IDO1 (kynurenine production, Ehrlich reagent, absorbance 490 nm)
Settings: 20 hours incubation with compound, 500 nM reference standard = 100% inhibition, read-out: IDO1 HEK Human IC50
Where a name gives a salt, the structure may show the parent alone.
The reader will find reported pIC50 values listed item by item below.
The meaning of pIC50 here: minus log10 of the concentration in molar units.

• CCCN(CC1CC1)c1cc(NC(=O)Cc2ccc(F)cc2F)cc(-c2ccccc2-c2nnn[nH]2)n1 [Example 70, TFA] = 6.38
• CC(C)CN(Cc1ccccc1)c1cc(Nc2ccc(C(=O)O)cc2F)cc(-c2ccccc2-c2nnn[nH]2)n1 [Example 166] = 5.39
• CCCN(Cc1ccccc1)c1cc(NC(=O)Nc2ccc(C)cc2)cc(-c2ccccc2C(N)=O)n1 [Example 38] = 6.52
• CCN(CCC(F)(F)F)c1nc(NC(=O)Nc2ccc(C)cc2)cc(-c2ccccc2-c2nnn[nH]2)n1 [Example 99] = 5.44
• Cc1ccc(CC(=O)Nc2cc(-c3ccccc3-c3nnn[nH]3)nc(N3CCc4ccccc4C3)n2)cc1 [Example 94] = 6.59
• CCCN(Cc1ccccc1)c1cc(NC(=O)C2CCCCC2)cc(-c2cc(C)ccc2-c2nnn[nH]2)n1 [Example 304] = 5.88
• CC(C)CN(Cc1ccccc1)c1cc(Nc2cccnc2F)cc(-c2ccccc2-c2nnn[nH]2)n1 [Example 160] = 7.63
• CC(C)CN(Cc1ccccc1)c1cc(NC(=O)c2ccc(F)c(F)c2)cc(-c2ccccc2-c2nnn[nH]2)n1 [Example 236] = 6.16
• CC(C)CN(Cc1ccccc1)c1cc(NC(=O)Cc2ccc(F)cc2F)cc(-c2ccccc2-c2nnn[nH]2)n1 [Example 229] = 6.73
• CCCN(Cc1ccccc1)c1cc(NC(=O)Cc2cccnc2)cc(-c2ccccc2-c2nn[nH]n2)n1 [Example 292] = 5.47

// recorded pIC50 for CC(C)CN(Cc1ccccc1)c1cc(NC(=O)Cc2ccc(F)c(F)c2)cc(-c2ccccc2-c2nnn[nH]2)n1 [Example 228] : 6.17

Please fill in: pIC50 reported for Cc1ccc(Nc2cc(-c3ccccc3-c3nnn[nH]3)nc(N(Cc3ccccc3)CC(C)C)c2)nc1 [Example 142] = 7.43

For reference, reported pIC50 for CCCN(Cc1ccc(F)cc1)c1cc(NC(=O)Nc2ccc(Cl)cc2Cl)cc(-c2ccccc2-c2nnn[nH]2)n1 [Example 86] stands at 8.07

Just so you know, measured pIC50 for CCCN(Cc1ccccc1)c1cc(NC(=O)CC2CCOCC2)cc(-c2ccccc2-c2nnn[nH]2)n1 [Example 295] came out at 5.43

pIC50 in this record for CCCN(Cc1ccccc1)c1cc(NC(=O)Nc2ccc(C)cc2)cc(-c2ccccc2S(N)(=O)=O)n1 [Example 27] : 6.22

====

Biological target: human IDO1 (Homo sapiens, UniProt P14902)
Test: IDO inhibition assay in HEK293 cells stably expressing human IDO1 (kynurenine production, Ehrlich reagent, absorbance 490 nm)
Conditions: 20 hours incubation with compound, 500 nM reference standard = 100% inhibition, read-out: IDO1 HEK Human IC50
Counter-ions that a name gives are not always drawn.
# Lookup of reported IC50 keyed by entry
Write it as a number; the unit nM goes unstated.

Examples from the recorded data:
- CC(C)CN(Cc1ccccc1)c1cc(Nc2ncc(C(F)(F)F)cn2)cc(-c2ccccc2-c2nnn[nH]2)n1 [Example 74, TFA]: 75.6
- CCCN(Cc1ccccc1)c1cc(NC(=O)Cc2ccc3ccccc3c2)cc(-c2ccccc2-c2nn[nH]n2)n1: 34.2
- CCCN(Cc1ccccc1)c1cc(NC(=O)C2(c3ccccc3)CC2)cc(-c2ccccc2-c2nn[nH]n2)n1: 964

Attention now turns to another entry.
The measured IC50 that `COc1cnc(Nc2cc(-c3ccccc3-c3nnn[nH]3)nc(N(Cc3ccccc3)CC(C)C)c2)nc1` showed for human IDO1 (Homo sapiens, UniProt P14902) is 14.4

====

pIC50 by entry:
Target: human IDO1 (Homo sapiens, UniProt P14902)
Test: IDO inhibition assay in HEK293 cells stably expressing human IDO1 (kynurenine production, Ehrlich reagent, absorbance 490 nm)
Details: 20 hours incubation with compound, 500 nM reference standard = 100% inhibition, read-out: IDO1 HEK Human IC50
Structures can show the parent of a compound that is named as a salt.
Bear in mind: pIC50 is minus log10 of a mol/L concentration; give just that figure.

Below, 5 molecules whose answers are already recorded.
* Cc1ccc(NC(=O)Nc2cc(-c3ccccc3C(=O)O)nc(N(CC(C)C)CC(C)C)c2)cc1 | 5.97
* CCN(Cc1ccccc1)c1cc(NC(=O)Cc2cccnc2)cc(-c2ccccc2-c2nnn[nH]2)n1 | 5.79
* Cc1ccc(CC(=O)Nc2cc(-c3ccccc3-c3nnn[nH]3)nc(N(Cc3ccc(F)cc3)CC(C)C)c2)cc1 [Example 90, TFA] | 7.39
* CCCN(Cc1ccccc1)c1cc(NC(=O)Nc2cc(C)cc(C)c2)cc(-c2ccccc2-c2nnn[nH]2)n1 | 6.84
* CCCN(Cc1ccccc1)c1cc(NC(=O)Nc2ccc(C)nn2)cc(-c2ccccc2-c2nnn[nH]2)n1 | 5.50

Lab note: measured pIC50 of `CC(C)CN(Cc1ccccc1)c1cc(Nc2cc(F)ccc2C(=O)O)cc(-c2ccccc2-c2nnn[nH]2)n1` was 5.56

Quick note, pIC50 for `Cc1nccc(Nc2cc(-c3ccccc3-c3nnn[nH]3)nc(N(Cc3ccccc3)CC(C)C)c2)n1` landed at 6.85

// sample `Cc1ccc(CC(=O)Nc2cc(-c3ccccc3-c3nnn[nH]3)nc(N3CCCC(C)(C)C3)c2)cc1` , its pIC50 was 5.91

For `CC(C)CN(Cc1ccccc1)c1cc(Nc2ncccn2)cc(-c2ccccc2-c2nnn[nH]2)n1` the molecule record lists pIC50 as 7.40

For record `Cc1ccc(Nc2cc(-c3ccccc3-c3nnn[nH]3)nc(N(Cc3ccccc3)CC(C)C)c2)c(F)c1` the listed pIC50 is 8.14

The value of pIC50 measured for the molecule `CCCN(Cc1ccccc1)c1cc(NC(=O)Nc2ccccc2F)cc(-c2cc(F)ccc2C(=O)O)n1` turned out to be 5.79

Record summary for `CCCN(Cc1ccccc1)c1cc(NC(=O)Cc2c[nH]cn2)cc(-c2ccccc2-c2nn[nH]n2)n1` : reported pIC50 = 5.47

Record CCCN(CC1CC1)c1nc(NC(=O)Cc2ccc(C)cc2)cc(-c2ccccc2-c2nnn[nH]2)n1 [Example 64, TFA] . Reported pIC50: 6.79

Notebook: `CCCN(Cc1ccccc1)c1cc(NC(=O)Cc2cc(OC)ccc2OC)cc(-c2ccccc2-c2nn[nH]n2)n1` , pIC50 read as 6.80

The molecule `CC(C)CN(Cc1ccccc1)c1cc(Nc2ccc(Cl)cc2)cc(-c2ccccc2-c2nnn[nH]2)n1` showed pIC50 equal to 8.96

Ref: patent US12059420B2
